# Experiment: log P determination by HPLC on reversed-phase columns (EEC Directive 79/831 Annex V.A8)
# Format: physicochemical
# Test parameters: pH 2.7
Kindly state chromatographic logP for each of the entries shown.
Could you keep your reply to the number by itself?

Query: What value of chromatographic logP has been recorded for this entry: Cc1cc(I)cc(C(=O)NC(C)(C)C)c1NC(=O)c1cc(Cn2cc(C(F)(F)F)nn2)nn1-c1ncccc1Cl
Result: 3.72

Query: What do you have for CNC(=O)c1cc(C#N)cc(C)c1NC(=O)c1cc(Cn2nc3ccc(Br)cc3n2)nn1-c1ncccc1Cl ?
Result: 3.01

Query: What do you have for CSC[C@H](C)NC(=O)c1cc(I)cc(C)c1NC(=O)c1cc(Cn2cc(C(F)(F)F)nn2)nn1-c1ncccc1Cl ?
Result: 3.59

Query: What do you have for CNC(=O)c1cc(C#N)cc(C)c1NC(=O)c1cc(Cn2ncc(C(C)(C)C)n2)nn1-c1ncccc1Cl ?
Result: 2.89

Query: What do you have for NC(=O)c1cc(Cl)cc(Cl)c1NC(=O)c1cc(Cn2cc(C(F)(C(F)(F)F)C(F)(F)F)nn2)nn1-c1ncccc1Cl ?
Result: 3.13

Query: What do you have for CNC(=O)c1cc(Cl)cc(C)c1NC(=O)c1cc(Cn2nc3ccc(F)cc3n2)nn1-c1ncccc1Cl ?
Result: 2.89

Query: What do you have for CNC(=O)c1cc(Cl)cc(C)c1NC(=O)c1cc(Cn2ncc(C(C)C)n2)nn1-c1ncccc1Cl ?
Result: 2.85

Query: What do you have for CNC(=O)c1cc(C#N)cc(C)c1NC(=O)c1cc(Cn2nnc3c(Cl)c(Cl)c(Cl)cc32)nn1-c1ncccc1Cl ?
Result: 3.42

Query: What do you have for CNC(=O)c1cc(Cl)cc(C)c1NC(=O)c1cc(Cn2nnc3cc(Cl)ccc32)nn1-c1ncccc1Cl ?
Result: 2.9

Query: What do you have for Cc1cc(Cl)cc(C(=O)NC(C)(C)C)c1NC(=O)c1cc(Cn2cc(-c3ccc(F)cc3)nn2)nn1-c1ncccc1Cl ?
Result: 3.63

Query: What do you have for Cc1cc(Cl)cc(C(=O)NC(C)C2CC2)c1NC(=O)c1cc(Cn2nc(C(F)(F)F)c(C(F)(F)F)n2)nn1-c1ncccc1Cl (centres unmarked) ?
Result: 4.5

Query: What do you have for Cc1cc(Cl)cc(C(=O)NC(C)C)c1NC(=O)c1cc(Cn2cc(C(F)(F)C(F)(F)F)nn2)nn1-c1ncccc1Cl ?
Result: 3.5

Query: What do you have for Cc1cc(C#N)cc(C(=O)NC(C)(C)C)c1NC(=O)c1cc(Cn2cc(C3CC3)nn2)nn1-c1ncccc1Cl ?
Result: 2.57

Query: What do you have for Cc1cc(I)cc(C(=O)NC(C)(C)C)c1NC(=O)c1cc(Cn2nc(C(F)(F)F)c(C(F)(F)F)n2)nn1-c1ncccc1Cl ?
Result: 4.84

----------
# Experiment: log P determination by HPLC on reversed-phase columns (EEC Directive 79/831 Annex V.A8)
# Format: physicochemical
# Test parameters: pH 2.7
Label not fulfilled if chromatographic logP falls below 3; label fulfilled in every other case.

Query: // inclusive: chromatographic logP at least 3? input: CNC(=O)c1cc(C#N)cc(C)c1NC(=O)c1cc(Cn2nc3cc(OC(F)(F)F)cc(Br)c3n2)nn1-c1ncccc1Cl
Result: fulfilled

Query: What do you have for CSC[C@H](C)NC(=O)c1cc(Cl)cc(Cl)c1NC(=O)c1cc(Cn2cc(C(F)(F)F)nn2)nn1-c1ncccc1Cl ?
Result: fulfilled

Query: What do you have for Cc1cc(I)cc(C(=O)NC(C)C)c1NC(=O)c1cc(Cn2cc(C(F)(F)C(F)(F)F)nn2)nn1-c1ncccc1Cl ?
Result: fulfilled

Query: What do you have for CNC(=O)c1cc(C#N)cc(C)c1NC(=O)c1cc(Cn2ncc(-c3ccc(Cl)cc3)n2)nn1-c1ncccc1Cl ?
Result: fulfilled

Query: What do you have for CC(NC(=O)c1cc(Cl)cc(Cl)c1NC(=O)c1cc(Cn2cc(C(F)(F)F)nn2)nn1-c1ncccc1Cl)C1CC1 (centres unmarked) ?
Result: fulfilled

Query: What do you have for Cc1cc(C#N)cc(C(=O)NC(C)(C)C)c1NC(=O)c1cc(Cn2cc(-c3ccc(F)cc3)nn2)nn1-c1ncccc1Cl ?
Result: fulfilled

Query: What do you have for Cc1cc(Cl)cc(C(=O)NC(C)C)c1NC(=O)c1cc(Cn2ncc(C(F)(C(F)(F)F)C(F)(F)F)n2)nn1-c1ncccc1Cl ?
Result: fulfilled

Query: What do you have for CNC(=O)c1cc(Cl)cc(C)c1NC(=O)c1cc(Cn2cc(C(C)C)nn2)nn1-c1ncccc1Cl ?
Result: not fulfilled

Query: What do you have for CSC[C@H](C)NC(=O)c1cc(Cl)cc(Cl)c1NC(=O)c1cc(Cn2ncc(C(F)(F)F)n2)nn1-c1ncccc1Cl ?
Result: fulfilled

Query: What do you have for Cc1cc(Cl)cc(C(N)=O)c1NC(=O)c1cc(Cn2cc(C(F)(F)F)nn2)nn1-c1ncccc1Cl ?
Result: not fulfilled

Query: What do you have for O=C(NC1CC1)c1cc(Cl)cc(Cl)c1NC(=O)c1cc(Cn2ncc(C(F)(F)F)n2)nn1-c1ncccc1Cl ?
Result: fulfilled

Query: What do you have for CCNC(=O)c1cc(I)cc(C)c1NC(=O)c1cc(Cn2nc(C(F)(F)F)c(C(F)(F)F)n2)nn1-c1ncccc1Cl ?
Result: fulfilled

----------
Kindly state pest or weed control at 100 g/ha for each of the entries shown.
# System: caterpillars of the armyworm (Spodoptera frugiperda)
# Experiment: Spodoptera frugiperda test (SPODFR spray treatment)
# Assay type: in vivo
# Test parameters: 168 h, 100 g/ha, after 7 days, read-out: activity in %
# output: bare number, implied unit %

Query: What value of pest or weed control at 100 g/ha has been recorded for this entry: Cc1cc(C#N)cc(C(=O)NC(C)(C)C)c1NC(=O)c1cc(Cn2cc(-c3ccc(F)cc3)nn2)nn1-c1ncccc1Cl [Example 53]
Result: 100

Query: What do you have for O=C(NC1CC1)c1cc(Cl)cc(Cl)c1NC(=O)c1cc(Cn2ncc(C(F)(C(F)(F)F)C(F)(F)F)n2)nn1-c1ncccc1Cl [Example 280] ?
Result: 100

Query: What do you have for CNC(=O)c1cc(C#N)cc(C)c1NC(=O)c1cc(Cn2nnc3c(Cl)c(Cl)c(Cl)c(Cl)c32)nn1-c1ncccc1Cl [Example 92] ?
Result: 100

----------
# Experiment: log P determination by HPLC on reversed-phase columns (EEC Directive 79/831 Annex V.A8)
# Type: physicochemical
# Test parameters: pH 2.7
# Protocol: Determination by LC-MS in the acidic range takes place at a pH of 2.7 using 0.1% aqueous formic acid and acetonitrile (containing 0.1% formic acid) as eluents, with a linear gradient from 10% acetonitrile to 95% acetonitrile. Calibration was carried out using unbranched alkan-2-ones (having 3 to 16 carbon atoms) with known log P values (the log P values are determined from the retention times by linear interpolation between two successive alkanones).
Kindly state chromatographic logP for each of the entries shown.
Could you keep your reply to the number by itself?

Query: What value of chromatographic logP has been recorded for this entry: Cc1cc(Cl)cc(C(=O)NCC2CC2)c1NC(=O)c1cc(Cn2nc(C(F)(F)F)c(C(F)(F)F)n2)nn1-c1ncccc1Cl [Example 406]
Result: 4.29

Query: What do you have for CNC(=O)c1cc(C#N)cc(C)c1NC(=O)c1cc(Cn2cc(C(F)(F)C(F)(F)F)nn2)nn1-c1ncccc1Cl [Example 317] ?
Result: 2.68

Query: What do you have for CNC(=O)c1cc(C#N)cc(C)c1NC(=O)c1cc(Cn2nc3ccc(F)cc3n2)nn1-c1ncccc1Cl [Example 83] ?
Result: 2.55

Query: What do you have for Cc1cc(I)cc(C(=O)NC2CC2)c1NC(=O)c1cc(Cn2cc(C(F)(F)C(F)(F)F)nn2)nn1-c1ncccc1Cl [Example 310] ?
Result: 3.49

----------
# Experiment: log P determination by HPLC on reversed-phase columns (EEC Directive 79/831 Annex V.A8)
# Type: physicochemical
# Test parameters: pH 2.7; HPLC on reversed-phase columns (C 18), EEC Directive 79/831 Annex V.A8; read-out: logP
Measure: chromatographic logP
Could you keep your reply to the number by itself?

Query: What value of chromatographic logP has been recorded for this entry: CCNC(=O)c1cc(I)cc(C)c1NC(=O)c1cc(Cn2cc(C(F)(F)C(F)(F)C(F)(F)F)nn2)nn1-c1ncccc1Cl
Result: 3.83

Query: What do you have for CCNC(=O)c1cc(Cl)cc(C)c1NC(=O)c1cc(Cn2ncc(C(F)(F)C(F)(F)C(F)(F)F)n2)nn1-c1ncccc1Cl ?
Result: 4.03

Query: What do you have for Cc1cc(Cl)cc(C(N)=O)c1NC(=O)c1cc(Cn2cc(C(F)(F)C(F)(F)C(F)(F)F)nn2)nn1-c1ncccc1Cl ?
Result: 3.13

Query: What do you have for CNC(=O)c1cc(Cl)cc(C)c1NC(=O)c1cc(Cn2ncc(C(F)(F)C(F)(F)C(F)(F)F)n2)nn1-c1ncccc1Cl ?
Result: 3.76

Query: What do you have for Cc1cc(Cl)cc(C(=O)NC(C)C)c1NC(=O)c1cc(Cn2ncc(C(F)(F)C(F)(F)C(F)(F)F)n2)nn1-c1ncccc1Cl ?
Result: 4.27

Query: What do you have for CNC(=O)c1cc(C#N)cc(C)c1NC(=O)c1cc(Cn2ncc(C(F)(F)C(F)(F)C(F)(F)F)n2)nn1-c1ncccc1Cl ?
Result: 3.39

Query: What do you have for Cc1cc(C#N)cc(C(=O)NC(C)C2CC2)c1NC(=O)c1cc(Cn2cc(C(F)(F)C(F)(F)C(F)(F)F)nn2)nn1-c1ncccc1Cl (stereo not shown) ?
Result: 3.71

Query: What do you have for Cc1cc(Cl)cc(C(=O)NC(C)C2CC2)c1NC(=O)c1cc(Cn2cc(C(F)(F)C(F)(F)C(F)(F)F)nn2)nn1-c1ncccc1Cl (stereo not shown) ?
Result: 4.15

Query: What do you have for Cc1cc(I)cc(C(=O)NC(C)C)c1NC(=O)c1cc(Cn2cc(C(F)(F)C(F)(F)C(F)(F)F)nn2)nn1-c1ncccc1Cl ?
Result: 4.07

Query: What do you have for Cc1cc(I)cc(C(=O)NC2CC2)c1NC(=O)c1cc(Cn2cc(C(F)(F)C(F)(F)C(F)(F)F)nn2)nn1-c1ncccc1Cl ?
Result: 3.82

Query: What do you have for Cc1cc(Cl)cc(C(=O)NC(C)C2CC2)c1NC(=O)c1cc(Cn2ncc(C(F)(F)C(F)(F)C(F)(F)F)n2)nn1-c1ncccc1Cl (stereo not shown) ?
Result: 4.57

Query: What do you have for Cc1cc(I)cc(C(=O)NC(C)(C)C)c1NC(=O)c1cc(Cn2cc(C(F)(F)C(F)(F)C(F)(F)F)nn2)nn1-c1ncccc1Cl ?
Result: 4.42

Query: What do you have for CNC(=O)c1cc(I)cc(C)c1NC(=O)c1cc(Cn2cc(C(F)(F)C(F)(F)C(F)(F)F)nn2)nn1-c1ncccc1Cl ?
Result: 3.59

Query: What do you have for CCNC(=O)c1cc(I)cc(C)c1NC(=O)c1cc(Cn2ncc(C(F)(F)C(F)(F)C(F)(F)F)n2)nn1-c1ncccc1Cl ?
Result: 4.28

Query: What do you have for Cc1cc(I)cc(C(=O)NCC2CC2)c1NC(=O)c1cc(Cn2cc(C(F)(F)C(F)(F)C(F)(F)F)nn2)nn1-c1ncccc1Cl ?
Result: 4.13

Query: What do you have for Cc1cc(Cl)cc(C(=O)NCC2CC2)c1NC(=O)c1cc(Cn2cc(C(F)(F)C(F)(F)C(F)(F)F)nn2)nn1-c1ncccc1Cl ?
Result: 3.9

Query: What do you have for Cc1cc(Cl)cc(C(=O)NC(C)(C)C)c1NC(=O)c1cc(Cn2ncc(C(F)(F)C(F)(F)C(F)(F)F)n2)nn1-c1ncccc1Cl ?
Result: 4.65

Query: What do you have for Cc1cc(Cl)cc(C(=O)NC2CC2)c1NC(=O)c1cc(Cn2cc(C(F)(F)C(F)(F)C(F)(F)F)nn2)nn1-c1ncccc1Cl ?
Result: 3.57

Query: What do you have for Cc1cc(Cl)cc(C(N)=O)c1NC(=O)c1cc(Cn2ncc(C(F)(F)C(F)(F)C(F)(F)F)n2)nn1-c1ncccc1Cl ?
Result: 3.5

Query: What do you have for Cc1cc(C#N)cc(C(=O)NC(C)C)c1NC(=O)c1cc(Cn2cc(C(F)(F)C(F)(F)C(F)(F)F)nn2)nn1-c1ncccc1Cl ?
Result: 3.42

Query: What do you have for Cc1cc(C#N)cc(C(=O)NC2CC2)c1NC(=O)c1cc(Cn2cc(C(F)(F)C(F)(F)C(F)(F)F)nn2)nn1-c1ncccc1Cl ?
Result: 3.22

Query: What do you have for Cc1cc(Cl)cc(C(=O)NC(C)C)c1NC(=O)c1cc(Cn2cc(C(F)(F)C(F)(F)C(F)(F)F)nn2)nn1-c1ncccc1Cl ?
Result: 3.8

Query: What do you have for Cc1cc(Cl)cc(C(=O)NC(C)(C)C)c1NC(=O)c1cc(Cn2cc(C(F)(F)C(F)(F)C(F)(F)F)nn2)nn1-c1ncccc1Cl ?
Result: 4.21

Query: What do you have for CNC(=O)c1cc(I)cc(C)c1NC(=O)c1cc(Cn2ncc(C(F)(F)C(F)(F)C(F)(F)F)n2)nn1-c1ncccc1Cl ?
Result: 4

Query: What do you have for CNC(=O)c1cc(Cl)cc(C)c1NC(=O)c1cc(Cn2cc(C(F)(F)C(F)(F)C(F)(F)F)nn2)nn1-c1ncccc1Cl ?
Result: 3.38
